These measurements were taken from the RNAGym collection of RNA variant scans (doi:10.7554/elife.80360).

B1: Hairpin Ribozyme (parent)
chain: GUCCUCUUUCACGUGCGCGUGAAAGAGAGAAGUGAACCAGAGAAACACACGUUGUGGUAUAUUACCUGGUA

# Variants of: B1
# assay.name: self-cleavage, relative activity (ratio to wild type); higher = more cleavage; co-transcriptional
Would you kindly list self-cleavage for each of these variants?

C4G A22U | 0.196

Report self-cleavage for each item below.
1. A30U U70C
2. G15C A71C
3. C12A C37G
4. U2G U7C

1. 0.123
2. 1.29
3. 0.259
4. 0.384

Report self-cleavage for each item below.
1. A26G A44U
2. U2C U5C
3. G13C G25A

1: 0.103; 2: 0.0555; 3: 0.448
